Sourced from paper PMC9085437

# Procedure text: Pharmacokinetic assessment in healthy fed male volunteers after oral tablet administration, plasma quantified by MSPE-HPLC-UV
# Cond: human, in vivo, 25 mg
Parameter measured: AUC(0-inf) (ng·h/mL)

| Compound | Scale unit | Measurement |
| --- | --- | --- |
| OC[C@H]1O[C@@H](c2ccc(Cl)c(Cc3ccc(O[C@H]4CCOC4)cc3)c2)[C@H](O)[C@@H](O)[C@@H]1O [EMPA, empagliflozin] | ng·h/mL | 1430 |

----------
# Procedure text: Pharmacokinetic assessment in healthy fed male volunteers after oral tablet administration, plasma quantified by MSPE-HPLC-UV
# Cond: human, in vivo, 25 mg
# Protocol: The chromatographic analysis was conducted using a Waters alliance e2695, (Massachusetts, USA) system which was equipped with a Waters 2487 dual wavelength detector and C18 TMS endcapping/reversed phase column (Luna 5 μm C18 100 A HPLC column 250 × 4.6 mm id, Phenomenex Co, Torrance, CA) at 40 °C. […] The column effluent was monitored at UV wavelength of 215 nm and the injection volume was 20.0 μL. […]
Parameter measured: half-life (h)

| Compound | Parameter measured | Scale unit | Measurement |
| --- | --- | --- | --- |
| OC[C@H]1O[C@@H](c2ccc(Cl)c(Cc3ccc(O[C@H]4CCOC4)cc3)c2)[C@H](O)[C@@H](O)[C@@H]1O [EMPA, empagliflozin] | half-life | h | 7.2 |
